Give measured pKd for each item. Keep answers brief.
Molecular target: T1, E. coli β clamp (β subunit of DNA polymerase III, dnaN gene product) (E. coli, UniProt P0A988 1-366)
T1 construct: Expressed in BL21 E. coli from pET15b with an N-terminal tag; also called β ring; β protein; not shown: N-terminal tag from plasmid pET15b ('N-tagged protein', purified on Ni-NTA)
T1 sequence (P0A988 whole entry): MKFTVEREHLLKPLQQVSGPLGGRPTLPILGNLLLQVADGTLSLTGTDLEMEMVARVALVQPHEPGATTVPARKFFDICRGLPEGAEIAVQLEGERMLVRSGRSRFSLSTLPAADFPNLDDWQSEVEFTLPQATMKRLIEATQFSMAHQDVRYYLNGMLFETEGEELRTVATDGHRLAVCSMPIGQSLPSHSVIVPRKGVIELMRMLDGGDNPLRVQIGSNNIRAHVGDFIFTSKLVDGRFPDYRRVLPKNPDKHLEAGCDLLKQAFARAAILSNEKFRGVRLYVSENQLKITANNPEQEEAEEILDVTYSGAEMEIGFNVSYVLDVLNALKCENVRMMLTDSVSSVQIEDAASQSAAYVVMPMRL
Experiment: ITC, peptide 400 µM into β ring 20 µM, 25 °C, second experiment
Square brackets hold non-standard residues; d marks the D form. Phe(3,4-Cl2) = N[C@@H](Cc1ccc(Cl)c(Cl)c1)C(=O)O; Phe(4-Br) = N[C@@H](Cc1ccc(Br)cc1)C(=O)O; Phe(4-Cl) = N[C@@H](Cc1ccc(Cl)cc1)C(=O)O; Phe(4-Me) = Cc1ccc(C[C@H](N)C(=O)O)cc1; Cha = N[C@@H](CC1CCCCC1)C(=O)O
Here pKd is given on a logarithmic scale as minus log10 of the concentration in mol/L.

For the binder Ac-Q[Cha]DL[Phe(3,4-Cl2)]-OH (SMILES CC(=O)N[C@@H](CCC(N)=O)C(=O)N[C@@H](CC1CCCCC1)C(=O)N[C@@H](CC(=O)O)C(=O)N[C@@H](CC(C)C)C(=O)N[C@@H](Cc1ccc(Cl)c(Cl)c1)C(=O)O, also called AcQChaDLdiClF; Ac Q Cha D L diClF) [P14 (Ac-Gln-Cha-Asp-Leu-(3,4-di-Cl)Phe-OH)] , report pKd. 7.26

For the binder Ac-Q[Cha]DL[Phe(4-Cl)]-OH (SMILES CC(=O)N[C@@H](CCC(N)=O)C(=O)N[C@@H](CC1CCCCC1)C(=O)N[C@@H](CC(=O)O)C(=O)N[C@@H](CC(C)C)C(=O)N[C@@H](Cc1ccc(Cl)cc1)C(=O)O, also called AcQChaDLpClF; Ac-Q Cha DL pClF) [P12 (Ac-Gln-Cha-Asp-Leu-pClPhe-OH)] , report pKd. 6.91

For the binder Ac-Q[Cha]DL[Phe(4-Me)]-OH (SMILES CC(=O)N[C@@H](CCC(N)=O)C(=O)N[C@@H](CC1CCCCC1)C(=O)N[C@@H](CC(=O)O)C(=O)N[C@@H](CC(C)C)C(=O)N[C@@H](Cc1ccc(C)cc1)C(=O)O, also called AcQChaDLpMeF; Ac-Q Cha DL pMeF) [P11 (Ac-Gln-Cha-Asp-Leu-pMePhe-OH)] , report pKd. 6.44

For the binder Ac-Q[Cha]DL[Phe(4-Br)]-OH (SMILES CC(=O)N[C@@H](CCC(N)=O)C(=O)N[C@@H](CC1CCCCC1)C(=O)N[C@@H](CC(=O)O)C(=O)N[C@@H](CC(C)C)C(=O)N[C@@H](Cc1ccc(Br)cc1)C(=O)O, also called AcQChaDLpBrF; Ac-Q Cha DL pBrF) [P13 (Ac-Gln-Cha-Asp-Leu-pBrPhe-OH)] , report pKd. 6.78
